Test system: ATP;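 further: ATP exposure 15 min at 22 °C before imaging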
Experiment notes: switch fluorescence ratio, 500 uM ATP over buffer (Cy3 cluster intensity, sum of 5 cycles each) (fold (ratio)); higher = stronger signal-on switching upon ATP binding; sequences stand for … in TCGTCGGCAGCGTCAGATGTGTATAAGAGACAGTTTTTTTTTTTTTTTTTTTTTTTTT…TC
Test conditions: aptamer strand: ATP DNA aptamer (quencher-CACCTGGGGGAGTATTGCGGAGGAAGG + anchor), 100 nM annealed; ATP concentration: 500 uM
Each item that follows carries a reported switch fluorescence ratio.
Metric: switch fluorescence ratio

Polymer sequence	Assayed target	Numeric value
AGAGGCAAGG	ATP	1.01
AGATTGTTTA	ATP	0.981
GGGTTGAGCG	ATP	1.02
AAAAGCTGGG	ATP	1.02
GAGCTGTGGG	ATP	0.971
TATGGGTGTG	ATP	1.02
CGAGCTTATA	ATP	1.38
CGTTTTAGAG	ATP	1.01
CCAGCTGGGT	ATP	1.01
TTTGGATGTG	ATP	0.984
TACCTTGAGC	ATP	1
GTTATTTATT	ATP	0.995
GCGTTACGGT	ATP	1.02
CAAATGGGCC	ATP	0.993
TTTCCTGGCG	ATP	1.02
ATAGCTGGAA	ATP	0.968
TGCGTGTGGT	ATP	1.04
TATCGGGGTG	ATP	0.996
CGGTTACCGT	ATP	0.986
GAAACAGGGA	ATP	1.06
TTAACATGTT	ATP	0.996
GGACATGTAG	ATP	0.965
TTAGAAATAT	ATP	1.01
AGGTCGGGAG	ATP	0.99
GGTGCAACAT	ATP	1.03
TTTAAAGATG	ATP	0.999
TTGGCTTAGG	ATP	1.05
GATAGCCAAT	ATP	1.02
ATTGACTGAT	ATP	1.03
ACCTTGGTTG	ATP	0.961
GCGTAAGCGG	ATP	0.981
TTGGCTGGCT	ATP	1.08
GAGATAGGGG	ATP	0.994
CCAATGTTTT	ATP	0.98
AGGGGCACGG	ATP	1.02
GATGAAAGTG	ATP	0.99
GCTAAGTCGG	ATP	0.982
TAAAAGACTG	ATP	0.992
CATGATGTTC	ATP	1.02

----------
Test system: ATP;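 further: ATP exposure 15 min at 22 °C before imaging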
Experiment notes: switch fluorescence ratio, 500 uM ATP over buffer (Cy3 cluster intensity, sum of 5 cycles each) (fold (ratio)); higher = stronger signal-on switching upon ATP binding; sequences stand for … in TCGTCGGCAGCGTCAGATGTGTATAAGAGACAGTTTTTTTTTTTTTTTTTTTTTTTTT…TC
Test conditions: aptamer strand: ATP DNA aptamer (quencher-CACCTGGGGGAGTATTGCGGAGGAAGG + anchor), 100 nM annealed; ATP concentration: 500 uM
Each item that follows carries a reported switch fluorescence ratio.

Polymer sequence	switch fluorescence ratio
ATCGGGGGTT	0.987
ATTCATGTTG	0.996
GTTAAGTAGC	0.971
GGGTAATTTG	1
ATTGTTTTGA	0.982
GCTGTTTTGT	1
GAATGAGTTG	0.977
TGGAGTAGAT	0.986
ATATCTGGCA	1.02
TATTATTTTG	1
GGTGGAAGTA	0.998
GATAATAAGT	1.01
